Tested on: A549
assay_remarks: Antiproliferative activity against human A549 cells by XTT assay
Assay type: functional, cell-based
pIC50: −log10 of the molar value.
Listing of entries alongside the reported pIC50.

{"molecule": "COc1ccc2c(c1)C(=O)c1c-2c(C)nc2ccc(OC)cc12", "pIC50": 4.12}
{"molecule": "COc1cccc2c1C(=O)c1c(O)c3c(c(O)c1C2=O)C[C@@](O)(C(C)=O)C[C@@H]3O[C@H]1C[C@H](N)[C@H](O)[C@H](C)O1", "pIC50": 7.10}
{"molecule": "COc1ccc2c(c1)C(=O)c1c-2c(/C=C/c2ccc([N+](=O)[O-])o2)nc2ccccc12", "pIC50": 7.15}
{"molecule": "COc1ccc2c(c1)C(=O)c1c-2c(/C=C/c2ccc([N+](=O)[O-])o2)nc2ccc(F)cc12", "pIC50": 6.13}

---

System: MDA-MB-231
assay_remarks: Antiproliferative activity against human MDA-MB-231 cells by XTT assay
Type: functional, cell-based

{"molecule": "COc1ccc2c(c1)C(=O)c1c-2c(C)nc2ccc(F)cc12", "tgt": "MDA-MB-231", "IC50 [nM]": 52100}
{"molecule": "COc1ccc2c(c1)C(=O)c1c-2c(/C=C/c2ccc([N+](=O)[O-])o2)nc2ccc(F)cc12", "tgt": "MDA-MB-231", "IC50 [nM]": 93}
{"molecule": "COc1ccc2c(c1)C(=O)c1c-2c(/C=C/c2ccc([N+](=O)[O-])o2)nc2ccc(OC)cc12", "tgt": "MDA-MB-231", "IC50 [nM]": 930}
{"molecule": "COc1ccc2c(c1)C(=O)c1c-2c(/C=C/c2ccc([N+](=O)[O-])o2)nc2ccccc12", "tgt": "MDA-MB-231", "IC50 [nM]": 95}
{"molecule": "COc1cccc2c1C(=O)c1c(O)c3c(c(O)c1C2=O)C[C@@](O)(C(C)=O)C[C@@H]3O[C@H]1C[C@H](N)[C@H](O)[C@H](C)O1", "tgt": "MDA-MB-231", "IC50 [nM]": 91}
{"molecule": "COc1ccc2c(c1)C(=O)c1c-2c(C)nc2ccc(OC)cc12", "tgt": "MDA-MB-231", "IC50 [nM]": 62300}
{"molecule": "COc1ccc2c(c1)C(=O)c1c-2c(C)nc2ccccc12", "tgt": "MDA-MB-231", "IC50 [nM]": 42000}

---

System: A549
assay_remarks: Antiproliferative activity against human A549 cells by XTT assay
Format: functional, cell-based
pIC50: −log10 of the molar value.
measured_quantity: pIC50

{"molecule": "COc1ccc2c(c1)C(=O)c1c-2c(C)nc2ccccc12", "reported": 4.21}
{"molecule": "COc1ccc2c(c1)C(=O)c1c-2c(/C=C/c2ccc([N+](=O)[O-])o2)nc2ccc(OC)cc12", "reported": 5.88}
{"molecule": "COc1ccc2c(c1)C(=O)c1c-2c(C)nc2ccc(F)cc12", "reported": 4.15}
